FYI, the data here is from patent US20150104459A1.

- subjectOfTest: recombinant soluble homotrimeric HA of A/chicken/Vietnam/NCVD-016/08 (H5N1) (Influenza A virus A/chicken/Vietnam/NCVD-016/2008 (H5N1))
- assayExplanation: HA microarray, BCC supernatant
- measurementConditions: remark: other sources report otherwise
Field: Trimeric HA Binding RLU. Provide a value for each of the binders that follow.
Answers are plain numbers, in RLU.

[Q] Fill in the blank: the reported Trimeric HA Binding RLU of TCN-554 (5277_M05) (antibody, V domains shown) VH: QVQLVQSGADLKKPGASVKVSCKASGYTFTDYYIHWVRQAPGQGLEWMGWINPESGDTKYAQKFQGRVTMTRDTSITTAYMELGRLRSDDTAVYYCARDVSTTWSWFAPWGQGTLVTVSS VL: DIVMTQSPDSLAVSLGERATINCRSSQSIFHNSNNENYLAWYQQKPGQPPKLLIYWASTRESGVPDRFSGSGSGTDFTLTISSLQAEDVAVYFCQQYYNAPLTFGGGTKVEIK is ____.
[A] 250

[Q] Fill in the blank: the reported Trimeric HA Binding RLU of TCN-563 (5237_B21) (antibody, V domains shown) VH: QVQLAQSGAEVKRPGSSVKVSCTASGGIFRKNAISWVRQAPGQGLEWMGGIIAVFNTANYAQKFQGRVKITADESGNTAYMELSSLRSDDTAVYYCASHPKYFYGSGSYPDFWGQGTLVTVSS VL: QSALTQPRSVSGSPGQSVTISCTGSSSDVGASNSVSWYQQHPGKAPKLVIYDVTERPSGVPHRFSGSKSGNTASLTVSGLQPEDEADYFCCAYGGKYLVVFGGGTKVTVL is ____.
[A] 41000

Attention now turns to another entry.
[Q] Fill in the blank: the reported Trimeric HA Binding RLU of TCN-538 (3206_O17) (antibody, V domains shown) VH: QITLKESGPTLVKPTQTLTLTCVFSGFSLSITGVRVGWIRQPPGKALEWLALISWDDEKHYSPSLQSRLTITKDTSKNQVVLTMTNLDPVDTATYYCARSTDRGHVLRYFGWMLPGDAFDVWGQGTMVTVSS VL: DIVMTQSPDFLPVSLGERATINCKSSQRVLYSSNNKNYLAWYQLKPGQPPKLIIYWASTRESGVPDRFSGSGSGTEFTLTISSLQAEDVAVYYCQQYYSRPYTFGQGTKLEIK is ____.
[A] 37300
